// reported MV4-11 %inh per item
tested on: MV4-11; design: species or system AML cell lines (8); Primary HTS, single concentration about 10 uM, Cell Titer Glo viability; log10 luminescence, per cent inhibition relative to cycloheximide control; settings: 72 h, relative to cycloheximide control, log10 luminescence, inhibitor, MV4-11 %inh, 10 µM
Counter-ions that a name gives are not always drawn.

- compound: "O=C1NC(=O)/C(=C\\c2ccc3nccnc3c2)S1"
  experimental-target: "MV4-11"
  unit-label: "%"
  MV4-11 %inh: -0.9615
- compound: "CN[C@@H]1[C@H](O[C@H]2[C@H](O[C@H]3[C@H](O)[C@@H](O)[C@H](N=C(N)N)[C@@H](O)[C@@H]3N=C(N)N)O[C@@H](C)[C@]2(O)C=O)O[C@@H](CO)[C@H](O)[C@H]1O [SJ000285297-5, STREPTOMYCIN SULFATE]"
  experimental-target: "MV4-11"
  unit-label: "%"
  MV4-11 %inh: 1.701
- compound: "C[C@H](CS)C(=O)N1CCC[C@H]1C(=O)O [SJ000286908-10, CAPTOPRIL]"
  experimental-target: "MV4-11"
  unit-label: "%"
  MV4-11 %inh: -0.07613
- compound: "CC1/C=C/C=C/C=C/C=C/C=C/C=C/C=C/C(OC2O[C@H](C)[C@@H](O)[C@H](N)[C@@H]2O)CC(O)C(C(=O)O)C(O)CC(=O)CC(O)CC(O)CC(O)CC(=O)CCCC(=O)CC(=O)OC1C(C)CC(C)C(O)CC(=O)c1ccc(N)cc1 (single isomer, unassigned)"
  experimental-target: "MV4-11"
  unit-label: "%"
  MV4-11 %inh: 0.2404
- compound: "CN1C(C(=O)Nc2ccccn2)=C(O)c2ccccc2S1(=O)=O"
  experimental-target: "MV4-11"
  unit-label: "%"
  MV4-11 %inh: -0.5288
- compound: "CC=CC1=C(C(=O)O)N2C(=O)[C@@H](NC(=O)[C@H](N)c3ccc(O)cc3)[C@H]2SC1"
  experimental-target: "MV4-11"
  unit-label: "%"
  MV4-11 %inh: 3.254
- compound: "C[C@]12C=CC(=O)C=C1CC[C@@H]1[C@@H]2C(=O)C[C@@]2(C)[C@H]1CC[C@]2(O)C(=O)CO"
  experimental-target: "MV4-11"
  unit-label: "%"
  MV4-11 %inh: -0.9421
- compound: "CCOc1cc(CC(=O)N[C@@H](CC(C)C)c2ccccc2N2CCCCC2)ccc1C(=O)O [SJ000287528-3, REPAGLINIDE]"
  experimental-target: "MV4-11"
  unit-label: "%"
  MV4-11 %inh: -2.004
- compound: "CC(C)(C)C(=O)Oc1ccc(S(=O)(=O)Nc2ccccc2C(=O)NCC(=O)O)cc1 [SJ000556638-3, SIVELESTAT SODIUM SALT]"
  experimental-target: "MV4-11"
  unit-label: "%"
  MV4-11 %inh: -1.916
- compound: "Nc1ncnc2occ(-c3ccc(NC(=O)Nc4cc(C(F)(F)F)ccc4F)cc3)c12"
  experimental-target: "MV4-11"
  unit-label: "%"
  MV4-11 %inh: 68.76
- compound: "CCOC(=O)C1=C(C)NC(C)=C(C(=O)OC)C1c1cccc(Cl)c1Cl (single isomer, unassigned)"
  experimental-target: "MV4-11"
  unit-label: "%"
  MV4-11 %inh: 5.092
- compound: "COc1ccc2cc(CCC(C)=O)ccc2c1"
  experimental-target: "MV4-11"
  unit-label: "%"
  MV4-11 %inh: 0.7976
- compound: "C[C@@H]1CN(c2c(F)c(N)c3c(=O)c(C(=O)O)cn(C4CC4)c3c2F)C[C@H](C)N1"
  experimental-target: "MV4-11"
  unit-label: "%"
  MV4-11 %inh: 1.115

Hello, the source for this data is paper PMC6522510, in case you need it.
